Measured pEC50 accompanies every entry in the list below.
Biological target: GluN1/GluN2A glutamate receptors (human GRIN1/GRIN2A) expressed in HEK293 cells (Homo sapiens (Human), UniProt Q05586+Q12879)
Sequence (Q12879 whole entry, looked up, other chains not shown): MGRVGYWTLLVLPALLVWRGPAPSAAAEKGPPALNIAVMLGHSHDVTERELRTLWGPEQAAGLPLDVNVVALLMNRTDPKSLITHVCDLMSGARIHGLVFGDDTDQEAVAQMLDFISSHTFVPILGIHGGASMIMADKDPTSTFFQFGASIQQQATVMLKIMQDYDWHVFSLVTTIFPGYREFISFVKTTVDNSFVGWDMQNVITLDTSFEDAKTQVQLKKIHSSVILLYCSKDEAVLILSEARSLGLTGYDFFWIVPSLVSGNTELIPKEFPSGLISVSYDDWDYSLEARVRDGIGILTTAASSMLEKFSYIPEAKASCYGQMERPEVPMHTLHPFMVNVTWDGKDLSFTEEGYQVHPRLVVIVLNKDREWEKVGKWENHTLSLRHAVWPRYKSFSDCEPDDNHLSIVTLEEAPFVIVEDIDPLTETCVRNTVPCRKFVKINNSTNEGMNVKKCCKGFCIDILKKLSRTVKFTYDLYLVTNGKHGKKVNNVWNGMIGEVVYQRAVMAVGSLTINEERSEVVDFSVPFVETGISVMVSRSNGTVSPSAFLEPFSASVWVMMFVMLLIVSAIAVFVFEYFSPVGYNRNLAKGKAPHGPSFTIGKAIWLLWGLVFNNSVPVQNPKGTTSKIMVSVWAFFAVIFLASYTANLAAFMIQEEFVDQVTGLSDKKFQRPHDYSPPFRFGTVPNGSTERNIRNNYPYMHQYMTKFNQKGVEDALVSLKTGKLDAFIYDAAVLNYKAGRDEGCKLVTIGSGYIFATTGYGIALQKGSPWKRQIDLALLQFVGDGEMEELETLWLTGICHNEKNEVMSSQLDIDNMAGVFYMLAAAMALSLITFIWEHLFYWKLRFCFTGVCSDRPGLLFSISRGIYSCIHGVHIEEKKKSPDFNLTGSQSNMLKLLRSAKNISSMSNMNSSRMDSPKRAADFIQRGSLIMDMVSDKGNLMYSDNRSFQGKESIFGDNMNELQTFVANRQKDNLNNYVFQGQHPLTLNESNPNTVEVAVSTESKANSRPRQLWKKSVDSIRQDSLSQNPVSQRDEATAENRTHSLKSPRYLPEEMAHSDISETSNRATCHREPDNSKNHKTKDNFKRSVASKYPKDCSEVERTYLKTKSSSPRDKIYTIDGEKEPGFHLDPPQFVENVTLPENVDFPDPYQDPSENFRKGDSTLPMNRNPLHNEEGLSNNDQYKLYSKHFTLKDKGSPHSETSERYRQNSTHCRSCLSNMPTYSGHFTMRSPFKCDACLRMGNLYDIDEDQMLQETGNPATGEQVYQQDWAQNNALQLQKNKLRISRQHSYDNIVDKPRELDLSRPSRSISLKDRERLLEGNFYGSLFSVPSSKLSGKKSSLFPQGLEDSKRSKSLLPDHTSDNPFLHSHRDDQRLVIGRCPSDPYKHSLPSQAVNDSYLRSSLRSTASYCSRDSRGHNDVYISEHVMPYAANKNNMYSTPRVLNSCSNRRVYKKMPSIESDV
Assay: Whole-cell patch clamp of mammalian cells (Ionworks Barracuda), positive allosteric modulation, GluN1/GluN2A
Assay type: cell-based
Details: peak current amplitude; co-application with EC20 L-glutamate and 30 μM glycine; HEK293; read-out: GluN2A PCA EC50
pEC50: −log10 of the molar value.

These solved cases illustrate the format of a correct answer.
| input.smiles | pEC50 |
| --- | --- |
| CC[C@]1(O)CC[C@@]2(C)[C@@H](CC[C@@H]3[C@@H]2CC[C@]2(C)[C@@H]([C@H](C)[C@H](O)CCC(C)C)CC[C@@H]32)C1 | < 6.00 |
| C[C@@H]([C@H]1CC[C@H]2[C@@H]3CC[C@H]4C[C@](O)(C(F)(F)F)CC[C@]4(C)[C@H]3CC[C@]12C)[C@@H](O)C[C@@H](O)c1ccccc1 | < 6.00 |
| CC[C@]1(O)CC[C@@]2(C)[C@@H](CC[C@@H]3[C@@H]2CC[C@]2(C)[C@@H]([C@H](C)[C@@H](O)CC4CCC(C)(C)CC4)CC[C@@H]32)C1 | 7.00 to 9.00 |
| C[C@@H]([C@H]1CC[C@H]2[C@@H]3CC[C@H]4C[C@](O)(C(F)(F)F)CC[C@]4(C)[C@H]3CC[C@]12C)[C@@H](O)C[C@H](O)c1ccccc1 | < 6.00 |
| CC[C@]1(O)CC[C@@]2(C)[C@@H](CC[C@@H]3[C@@H]2CC[C@]2(C)[C@@H]([C@H](C)[C@@H](O)CCC(C)C)CC[C@@H]32)C1 | < 6.00 |
| CC[C@]1(O)CC[C@@]2(C)[C@H](CC[C@@H]3[C@@H]2CC[C@]2(C)[C@@H]([C@H](C)[C@@H](O)CC4CCC(C)(C)CC4)CC[C@@H]32)C1 | < 6.00 |
| C[C@H]([C@H](O)C[C@@H](O)c1ccccc1)[C@H]1CC[C@H]2[C@@H]3CC[C@H]4C[C@](O)(C(F)(F)F)CC[C@]4(C)[C@H]3CC[C@]12C | 7.00 to 9.00 |
| CC[C@]1(O)CC[C@@]2(C)[C@@H](CC[C@@H]3[C@@H]2CC[C@]2(C)[C@@H]([C@H](C)[C@H](O)CC4CCC(C)(C)CC4)CC[C@@H]32)C1 | < 6.00 |
| C[C@H]([C@H](O)C[C@H](O)c1ccccc1)[C@H]1CC[C@H]2[C@@H]3CC[C@H]4C[C@](O)(C(F)(F)F)CC[C@]4(C)[C@H]3CC[C@]12C | 7.00 to 9.00 |
| CC[C@]1(O)CC[C@@]2(C)[C@H](CC[C@@H]3[C@@H]2CC[C@]2(C)[C@@H]([C@H](C)[C@H](O)CC4CCC(C)(C)CC4)CC[C@@H]32)C1 | < 6.00 |

Next molecule, pEC50 to be filled in.
Sample `CC[C@]1(O)CC[C@@]2(C)[C@H](CC[C@@H]3[C@@H]2CC[C@]2(C)[C@@H]([C@H](C)[C@H](O)CCC(C)C)CC[C@@H]32)C1` ; pEC50 observed: 6.00 to 7.00

###

Biological target: GluN2B glutamate receptors expressed in mammalian cells (Homo sapiens (Human), UniProt Q05586+Q13224)
Sequence (Q13224 27-1484, other chains not shown): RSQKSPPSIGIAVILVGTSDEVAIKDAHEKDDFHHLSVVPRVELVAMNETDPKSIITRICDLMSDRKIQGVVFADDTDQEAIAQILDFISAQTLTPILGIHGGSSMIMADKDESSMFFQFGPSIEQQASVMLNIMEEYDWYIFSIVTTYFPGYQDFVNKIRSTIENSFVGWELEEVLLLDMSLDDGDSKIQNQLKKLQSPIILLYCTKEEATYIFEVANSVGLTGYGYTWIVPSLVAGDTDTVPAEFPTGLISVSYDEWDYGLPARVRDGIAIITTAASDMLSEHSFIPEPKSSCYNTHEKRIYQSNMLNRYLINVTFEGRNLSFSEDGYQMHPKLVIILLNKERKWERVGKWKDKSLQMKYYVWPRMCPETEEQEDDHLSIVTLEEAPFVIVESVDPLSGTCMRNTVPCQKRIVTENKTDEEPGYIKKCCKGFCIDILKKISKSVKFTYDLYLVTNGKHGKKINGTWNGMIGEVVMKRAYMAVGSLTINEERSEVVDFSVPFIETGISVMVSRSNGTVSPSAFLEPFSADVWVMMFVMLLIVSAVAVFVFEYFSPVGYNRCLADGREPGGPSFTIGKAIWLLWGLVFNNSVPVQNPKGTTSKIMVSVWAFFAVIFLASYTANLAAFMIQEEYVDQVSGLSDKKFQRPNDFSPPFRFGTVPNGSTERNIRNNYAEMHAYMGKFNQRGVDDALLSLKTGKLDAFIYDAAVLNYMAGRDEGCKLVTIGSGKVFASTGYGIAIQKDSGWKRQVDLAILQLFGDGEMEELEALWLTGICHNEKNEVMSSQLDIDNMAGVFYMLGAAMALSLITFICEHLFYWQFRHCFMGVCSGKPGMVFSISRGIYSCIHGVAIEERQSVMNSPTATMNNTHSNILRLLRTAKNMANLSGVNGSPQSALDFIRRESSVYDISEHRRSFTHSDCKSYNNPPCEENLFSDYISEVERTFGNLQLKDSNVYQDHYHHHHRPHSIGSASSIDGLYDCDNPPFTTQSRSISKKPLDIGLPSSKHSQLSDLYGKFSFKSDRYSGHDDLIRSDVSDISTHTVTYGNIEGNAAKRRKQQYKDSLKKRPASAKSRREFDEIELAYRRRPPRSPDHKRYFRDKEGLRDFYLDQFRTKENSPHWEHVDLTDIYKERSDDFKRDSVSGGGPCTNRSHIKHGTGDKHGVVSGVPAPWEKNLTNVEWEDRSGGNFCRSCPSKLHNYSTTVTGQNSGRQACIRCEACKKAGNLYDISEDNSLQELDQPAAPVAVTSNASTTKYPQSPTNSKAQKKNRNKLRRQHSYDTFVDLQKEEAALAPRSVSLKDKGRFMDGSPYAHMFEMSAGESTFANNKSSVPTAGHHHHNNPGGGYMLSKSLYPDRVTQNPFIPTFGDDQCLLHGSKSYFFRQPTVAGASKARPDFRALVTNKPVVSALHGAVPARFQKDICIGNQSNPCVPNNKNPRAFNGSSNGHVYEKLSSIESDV
Assay: Whole-cell patch clamp of mammalian cells (Ionworks Barracuda), positive allosteric modulation, GluN2B
Type: cell-based
Settings: peak current amplitude; co-application with EC20 L-glutamate and 30 μM glycine; read-out: GluN2B PCA EC50
Measured EC50 accompanies every entry in the list below.

| input.smiles | EC50 |
| --- | --- |
| CC(C)CC[C@H](O)[C@@H](C)[C@H]1CC[C@H]2[C@@H]3CC[C@H]4C[C@@](C)(O)CC[C@]4(C)[C@H]3CC[C@]12C | > 1 µM |

Sample `CCC[C@H](O)[C@@H](C)[C@H]1CC[C@H]2[C@@H]3CC=C4C[C@](O)(CC)CC[C@]4(C)[C@H]3CC[C@]12C` ; EC50 observed: > 1 µM

Sample `CC[C@]1(O)CC[C@@]2(C)[C@@H](CC[C@@H]3[C@@H]2CC[C@]2(C)[C@@H]([C@H](C)[C@H](O)CC4CCCC4)CC[C@@H]32)C1` ; EC50 observed: > 1 µM

###

Target: GluN2B glutamate receptors expressed in mammalian cells (Homo sapiens (Human), UniProt Q05586+Q13224)
Assay: Whole-cell patch clamp of mammalian cells (Ionworks Barracuda), positive allosteric modulation, GluN2B
Type: cell-based
Details: read-out: GluN2B PCA EMax (%)
Measured Emax accompanies every entry in the list below.

These solved cases illustrate the format of a correct answer.
| input.smiles | recorded.metric | observed.result |
| --- | --- | --- |
| CC[C@]1(O)CC[C@@]2(C)[C@@H](CC[C@@H]3[C@@H]2CC[C@]2(C)[C@@H]([C@H](C)[C@H](O)CCC(C)C)CC[C@@H]32)C1 | Emax | < 100% |
| CC[C@]1(O)CC[C@@]2(C)[C@H](CC[C@@H]3[C@@H]2CC[C@]2(C)[C@@H]([C@H](C)[C@@H](O)CC4CCC(C)(C)CC4)CC[C@@H]32)C1 | Emax | < 100% |
| CC[C@]1(O)CC[C@@]2(C)[C@@H](CC[C@@H]3[C@@H]2CC[C@]2(C)[C@@H]([C@H](C)[C@@H](O)CC4CCC(C)(C)CC4)CC[C@@H]32)C1 | Emax | < 100% |

Sample `C[C@H]([C@H](O)C[C@@H](O)c1ccccc1)[C@H]1CC[C@H]2[C@@H]3CC[C@H]4C[C@](O)(C(F)(F)F)CC[C@]4(C)[C@H]3CC[C@]12C` ; Emax observed: 100 to 500%

Sample `C[C@@H]([C@H]1CC[C@H]2[C@@H]3CC[C@H]4C[C@](O)(C(F)(F)F)CC[C@]4(C)[C@H]3CC[C@]12C)[C@@H](O)C[C@@H](O)c1ccccc1` ; Emax observed: < 100%

Sample `C[C@H]([C@H](O)C[C@H](O)c1ccccc1)[C@H]1CC[C@H]2[C@@H]3CC[C@H]4C[C@](O)(C(F)(F)F)CC[C@]4(C)[C@H]3CC[C@]12C` ; Emax observed: 100 to 500%

###

Measured EC50 accompanies every entry in the list below.
Molecular target: GluN2B glutamate receptors expressed in mammalian cells (Homo sapiens (Human), UniProt Q05586+Q13224)
Experiment: Whole-cell patch clamp of mammalian cells (Ionworks Barracuda), positive allosteric modulation, GluN2B
Type: cell-based

| compound | recorded.metric | observed.result |
| --- | --- | --- |
| C[C@H]([C@H](O)C[C@@H](O)c1ccccc1)[C@H]1CC[C@H]2[C@@H]3CC[C@H]4C[C@](O)(C(F)(F)F)CC[C@]4(C)[C@H]3CC[C@]12C [Compound 31] | EC50 | 100 to 1000 nM |
| C[C@H]([C@H](O)C[C@H](O)c1ccccc1)[C@H]1CC[C@H]2[C@@H]3CC[C@H]4C[C@](O)(C(F)(F)F)CC[C@]4(C)[C@H]3CC[C@]12C [Compound 13] | EC50 | 1 to 100 nM |

Sample CC[C@]1(O)CC[C@@]2(C)[C@@H](CC[C@@H]3[C@@H]2CC[C@]2(C)[C@@H]([C@H](C)[C@H](O)CC4CCC(C)(C)CC4)CC[C@@H]32)C1 [Compound 20] ; EC50 observed: > 1000 nM

Sample CC[C@]1(O)CC[C@@]2(C)[C@H](CC[C@@H]3[C@@H]2CC[C@]2(C)[C@@H]([C@H](C)[C@H](O)CCC(C)C)CC[C@@H]32)C1 [Compound 96] ; EC50 observed: > 1000 nM

Sample CC[C@]1(O)CC[C@@]2(C)[C@H](CC[C@@H]3[C@@H]2CC[C@]2(C)[C@@H]([C@H](C)[C@H](O)CC4CCC(C)(C)CC4)CC[C@@H]32)C1 [Compound 87] ; EC50 observed: > 1000 nM

Sample CC[C@]1(O)CC[C@@]2(C)[C@@H](CC[C@@H]3[C@@H]2CC[C@]2(C)[C@@H]([C@H](C)[C@@H](O)CCC(C)C)CC[C@@H]32)C1 [Compound 29] ; EC50 observed: > 1000 nM

Sample C[C@@H]([C@H]1CC[C@H]2[C@@H]3CC[C@H]4C[C@](O)(C(F)(F)F)CC[C@]4(C)[C@H]3CC[C@]12C)[C@@H](O)C[C@H](O)c1ccccc1 [Compound 25] ; EC50 observed: > 1000 nM

###

Target: glutamate-activated channels of the GRIN1/2A subtype stably transfected in HEK 293 cells (Homo sapiens (Human), UniProt Q05586+Q12879)
Sequence (Q12879 whole entry, looked up, other chains not shown): as the sequence (Q12879 whole entry, looked up, other chains not shown) above
Assay: Automated patch-clamp system (QPatch HTX), percent potentiation at 1 μM
Format: cell-based
Details: HEK293, 1 μM test compound, 300 μM NMDA with 8 μM glycine, HEK 293 GRIN1/2A, read-out: GluN2A PCA % potentiation at 1 μM
recorded.metric: activation at 1 µM

These solved cases illustrate the format of a correct answer.
| compound | observed.result |
| --- | --- |
| C[C@H]([C@@H](O)C(F)(F)F)[C@H]1CC[C@H]2[C@@H]3CC[C@@H]4C[C@@](C)(O)CC[C@]4(C)[C@H]3CC[C@]12C [Compound 57] | < -40% |
| CC[C@]1(O)CC[C@@]2(C)C(=CC[C@H]3[C@@H]4CC[C@H]([C@H](C)[C@@H](O)CCC5CC5)[C@@]4(C)CC[C@@H]32)C1 [Compound 69] | -10 to 10% |
| CC(C)CC[C@H](O)[C@@H](C)[C@H]1CC[C@H]2[C@@H]3CC[C@H]4C[C@@](C)(O)CC[C@]4(C)[C@H]3CC[C@]12C [Compound 8] | < -40% |
| CCC[C@H](O)[C@@H](C)[C@H]1CC[C@H]2[C@@H]3CC=C4C[C@](O)(CC)CC[C@]4(C)[C@H]3CC[C@]12C [Compound 72] | -40 to -10% |

Next compound, activation at 1 µM to be filled in.
Sample CC(C)CC[C@@H](O)[C@@H](C)[C@H]1CC[C@H]2[C@@H]3CC=C4C[C@@](C)(O)CC[C@@H]4[C@H]3CC[C@]12C [Compound 83] ; activation at 1 µM observed: -40 to -10%
